Each recorded value in this set is attributed to patent US10766873B2.

Target: ErbB2 (Homo sapiens)
Sequence (P04626 23-1255): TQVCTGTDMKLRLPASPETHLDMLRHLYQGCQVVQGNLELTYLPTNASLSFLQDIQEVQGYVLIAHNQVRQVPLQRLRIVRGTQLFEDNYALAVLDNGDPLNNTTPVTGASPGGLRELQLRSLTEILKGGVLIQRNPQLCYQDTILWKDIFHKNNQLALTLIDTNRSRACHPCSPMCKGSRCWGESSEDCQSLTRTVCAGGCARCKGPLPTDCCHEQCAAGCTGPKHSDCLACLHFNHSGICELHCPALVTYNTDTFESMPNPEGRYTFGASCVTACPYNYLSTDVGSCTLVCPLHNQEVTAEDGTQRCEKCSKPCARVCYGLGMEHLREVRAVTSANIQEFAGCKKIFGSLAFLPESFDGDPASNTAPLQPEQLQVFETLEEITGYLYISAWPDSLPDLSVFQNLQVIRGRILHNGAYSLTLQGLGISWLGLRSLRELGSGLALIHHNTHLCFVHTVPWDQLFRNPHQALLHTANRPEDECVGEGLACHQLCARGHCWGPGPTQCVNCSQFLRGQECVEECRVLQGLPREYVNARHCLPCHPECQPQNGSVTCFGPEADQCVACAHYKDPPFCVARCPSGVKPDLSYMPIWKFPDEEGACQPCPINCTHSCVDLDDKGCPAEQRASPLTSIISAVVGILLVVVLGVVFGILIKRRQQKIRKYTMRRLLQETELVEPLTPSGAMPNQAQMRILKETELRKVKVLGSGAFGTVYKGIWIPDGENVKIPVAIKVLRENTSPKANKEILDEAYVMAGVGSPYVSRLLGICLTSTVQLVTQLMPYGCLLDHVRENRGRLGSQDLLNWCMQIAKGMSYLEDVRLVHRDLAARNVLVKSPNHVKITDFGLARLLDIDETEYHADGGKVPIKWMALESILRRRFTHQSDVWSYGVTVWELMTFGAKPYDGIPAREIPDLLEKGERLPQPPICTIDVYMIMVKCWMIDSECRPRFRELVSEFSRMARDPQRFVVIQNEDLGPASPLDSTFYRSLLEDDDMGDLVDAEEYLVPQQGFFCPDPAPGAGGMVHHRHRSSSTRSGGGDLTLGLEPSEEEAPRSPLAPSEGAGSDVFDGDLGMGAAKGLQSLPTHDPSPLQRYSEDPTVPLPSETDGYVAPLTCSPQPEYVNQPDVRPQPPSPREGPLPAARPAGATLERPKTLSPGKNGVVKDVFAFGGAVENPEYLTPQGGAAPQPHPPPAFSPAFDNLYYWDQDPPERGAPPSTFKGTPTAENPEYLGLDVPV
Assay: ErbB2 phosphorylation in SKBR3 cells, dot blot (4G10)
Assay type: cell-based
Parameters: endogenous in cells; host or cells: SKBR3
Conditions: SKBR3
quantity-measured: effect on ErbB2 phosphorylation/activation (in words)

smiles-entry | result
O=C(O)C1CCN(CCC=C2c3ccccc3Oc3ccccc32)CC1 | no effect
O=C(O)C1CCN(CCC=C2c3ccccc3Sc3ccccc32)CC1 | no effect
CCOC(=O)C1CCN(CCC=C2c3ccccc3Oc3ccccc32)CC1 | lower decrease
CCOC(=O)C1CCN(CCC=C2c3ccccc3Sc3ccccc32)CC1 | lower decrease

====

Target: FERM/ErbB2 interaction (Ezrin FERM domain / juxtamembrane ErbB2 peptide) (Homo sapiens)
Construct: made in house
Experiment: AlphaScreen competition assay, FERM/ErbB2 interaction
Assay type: binding
Settings: 20 h
Rule: Met for Competition assay FERM-ErbB2 interaction Max inhibition, % not less than 40%, Not met for anything less.

smiles-entry | target-or-test-system | label-class
FCCN1CCN(CC/C=C2/c3ccccc3Sc3ccc(C(F)(F)F)cc32)CC1 | FERM/ErbB2 interaction (Ezrin FERM domain / juxtamembrane ErbB2 peptide) (Homo sapiens) | Met
CCOC(=O)C1CCN(CCC=C2c3ccccc3Sc3ccccc32)CC1 | FERM/ErbB2 interaction (Ezrin FERM domain / juxtamembrane ErbB2 peptide) (Homo sapiens) | Not met
NCCN1CCN(CC/C=C2/c3ccccc3Sc3ccc(C(F)(F)F)cc32)CC1 | FERM/ErbB2 interaction (Ezrin FERM domain / juxtamembrane ErbB2 peptide) (Homo sapiens) | Met
CN1CCN(CC/C=C2/c3ccccc3Sc3ccc(S(=O)(=O)N(C)C)cc32)CC1 | FERM/ErbB2 interaction (Ezrin FERM domain / juxtamembrane ErbB2 peptide) (Homo sapiens) | Not met
O=C(O)C1CCN(CCC=C2c3ccccc3Sc3ccccc32)CC1 | FERM/ErbB2 interaction (Ezrin FERM domain / juxtamembrane ErbB2 peptide) (Homo sapiens) | Not met
